# study_target: AxCT mask27 EGFR EH104 L069 version 1
Quick reference: Percent cleavage of the listed items.
assay_endpoint: Percent cleavage (%)

MMP-12 (protein) GPVWRKHYITYRINNYTPDMNREDVDYAIRKAFQVWSNVTPLKFSKINTGMADILVVFARGAHGDFHAFDGKGGILAHAFGPGSGIGGDAHFDEDEFWTTHSGGTNLFLTAVHEIGHSLGLGHSSDPKAVMFPTYKYVDINTFRLSADDIRGIQSLYGDPKENQRLPNPDNSEPALCDPNLSFDAVTTVGNKIFFFKDRFFWLKVSERPKTSVNLISSLWPTLPSGIEAAYEIEARNQVFLFKDDKYWLISNLRPEPNYPKSIHSFGFPNFVKKIDAAVFNPRFYRTYFFVDNQYWRYDERRQMMDPGYPKLITKNFQGIGPKIDAVFYSKNKYYYFFQGSNQFEYDFLLQRITKTLKSNSWFGC | 63
MMP-7 (protein) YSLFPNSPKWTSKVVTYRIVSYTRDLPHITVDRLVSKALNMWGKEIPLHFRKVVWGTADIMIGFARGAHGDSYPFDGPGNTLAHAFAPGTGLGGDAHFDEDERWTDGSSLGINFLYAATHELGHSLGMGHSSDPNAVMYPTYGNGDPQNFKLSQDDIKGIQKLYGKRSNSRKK | 0
Neutrophil Elastase (protein) IVGGRRARPHAWPFMVSLQLRGGHFCGATLIAPNFVMSAAHCVANVNVRAVRVVLGAHNLSRREPTRQVFAVQRIFENGYDPVNLLNDIVILQLNGSATINANVQVAQLPAQGRRLGNGVQCLAMGWGLLGRNRGIASVLQELNVTVVTSLCRRSNVCTLVRGRQAGVCFGDSGSPLVCNGLIHGIASFVRGGCASGLYPDAFAPVAQFVNWIDSIIQ | 22
Cathepsin G (protein) IIGGRESRPHSRPYMAYLQIQSPAGQSRCGGFLVREDFVLTAAHCWGSNINVTLGAHNIQRRENTQQHITARRAIRHPQYNQRTIQNDIMLLQLSRRVRRNRNVNPVALPRAQEGLRPGTLCTVAGWGRVSMRRGTDTLREVQLRVQRDRQCLRIFGSYDPRRQICVGDRRERKAAFKGDSGGPLLCNNVAHGIVSYGKSSGVPPEVFTRVSSFLPWIRTTMRS | 12
Matriptase (protein) VVGGTDADEGEWPWQVSLHALGQGHICGASLISPNWLVSAAHCYIDDRGFRYSDPTQWTAFLGLHDQSQRSAPGVQERRLKRIISHPFFNDFTFDYDIALLELEKPAEYSSMVRPICLPDASHVFPAGKAIWVTGWGHTQYGGTGALILQKGEIRVINQTTCENLLPQQITPRMMCVGFLSGGVDSCQGDSGGPLSSVEADGRIFQAGVVSWGDGCAQRNKPGVYTRLPLFRDWIKENTGV | 0
MMP-1 (protein) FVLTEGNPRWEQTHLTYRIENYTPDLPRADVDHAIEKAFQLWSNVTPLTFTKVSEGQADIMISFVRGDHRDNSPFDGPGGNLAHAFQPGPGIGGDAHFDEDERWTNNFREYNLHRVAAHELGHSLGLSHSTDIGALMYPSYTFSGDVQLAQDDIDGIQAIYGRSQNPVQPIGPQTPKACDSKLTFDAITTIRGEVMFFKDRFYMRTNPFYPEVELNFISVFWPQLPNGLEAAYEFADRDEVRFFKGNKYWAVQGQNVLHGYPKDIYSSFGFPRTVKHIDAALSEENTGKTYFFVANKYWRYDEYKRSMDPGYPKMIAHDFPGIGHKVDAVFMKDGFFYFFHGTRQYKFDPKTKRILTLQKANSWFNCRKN | 0
